Test system: SK-MEL-2 melanoma
Test: NCI-60 one-dose screen, 48 h
Details: 10 µM unless noted
Compounds without any hit were thinned out: in the full panel of roughly 83,000, 20% have a hit. Activity calls are given as the source filed them. The calls were made as follows: active = growth percent below 10; inactive = the rest.
Just give me one of these, please: active, inactive

Observe how each entry below is paired with its result.
>>> print(df.to_string())
                              line_notation  class_assignment
0  COc1ccc(S(=O)(=O)ON=C2C=C(C)C(=O)C(C)=C2)cc1          inactive
1  FC(F)(F)c1cc(CNc2ncc(Br)c(Cl)n2)cc(C(F)(F)F)c1          inactive
2  CN1CCN(CCCn2c3c(sc4ncccc43)c(=O)n3nnc(-c4ccccc4)c23)CC1          inactive
3       Brc1ccccc1Nc1ccc2nnc(-c3ccncc3)n2n1          inactive

So what was the verdict on `Cc1nc2cc(Nc3nc(Nc4ccc(F)cc4)nc(-c4ccc(Cl)cc4)n3)ccc2n1Cc1ccccc1` in this test?
inactive

So what was the verdict on `Nc1nc2c(s1)CCc1c-2c(Br)n(Cc2ccccc2)c1Br` in this test?
inactive

So what was the verdict on `Cc1cc(=O)oc2c1ccc1oc(C(=O)c3ccccc3)c(C)c12` in this test?
inactive

So what was the verdict on `O=C(Nc1ccccc1)Oc1cccc2cccnc12` in this test?
inactive

So what was the verdict on `CCOc1ccc(/C=N\N2CCCCCC2)cc1OCC` in this test?
inactive

So what was the verdict on `CN1CCn2c(c(Sc3ccc(C(=O)NO)cc3)c3ccccc32)C1=O` in this test?
active

So what was the verdict on `COc1cc(-c2nc(Nc3nc4ccccc4[nH]3)nc(N)c2C#N)cc(OC)c1OC` in this test?
inactive
